system: Candida albicans (ATCC 10231); assay type: cell-based; settings: ATCC 10231, 48 h
Where a SMILES comes first, the peptide text is derived from it. The star is where a group is joined. Palmitoyl = CCCCCCCCCCCCCCCC(=O)*; Myristoyl = CCCCCCCCCCCCCC(=O)*; Lauroyl = CCCCCCCCCCCC(=O)*; Decanoyl = CCCCCCCCCC(=O)*; Octanoyl = CCCCCCCC(=O)*
measurement type: MIC Candida albicans (µg/mL)

CCCCCCCCCCCCCCCC(=O)N[C@@H](CCCCN)C(=O)N[C@@H](CCCCN)C(N)=O	128

I = CCCCCCCCCCCCCCCC(=O)N[C@@H](CCCCN)C(=O)NCC(=O)N[C@@H](CCCCN)C(=O)NCC(N)=O [C16-KGKG-NH2] (Palmitoyl-KGKG-NH2)
II = CCCCCCCC(=O)N[C@@H](CCCCN)C(=O)NCC(N)=O [C8-KG-NH2] (Octanoyl-Lys-Gly-NH2)
III = CCCCCCCCCC(=O)N[C@@H](CCCCN)C(=O)NCC(=O)N[C@@H](CCCCN)C(N)=O [C10-KGK-NH2] (Decanoyl-Lys-Gly-Lys-NH2)
Lookup: Ordering criterion: MIC Candida albicans; begin with the maximum. // ordering of labels required in reply
Found: II, III, I

1 = CCCCCCCCCCCCCCCC(=O)N[C@@H](CCCCN)C(=O)N[C@@H](CCCCN)C(=O)N[C@@H](CCCCN)C(=O)N[C@@H](CCCCN)C(N)=O [C16-KKKK-NH2] (Palmitoyl-KKKK-NH2)
2 = CCCCCCCCCCCC(=O)N[C@@H](CCCCN)C(N)=O
Lookup: Lowest MIC Candida albicans? choose 1 or 2 Your answer should be the label of the entry you select.
Found: 1
(1: 128 µg/mL, 2: 256 µg/mL)

P = CCCCCCCCCC(=O)N[C@@H](CCCCN)C(=O)N[C@@H](CCCCN)C(N)=O
Q = CCCCCCCCCCCCCCCC(=O)N[C@@H](CCCCN)C(=O)NCC(=O)N[C@@H](CCCCN)C(N)=O [C16-KGK-NH2] (Palmitoyl-Lys-Gly-Lys-NH2)
R = CCCCCCCCCC(=O)N[C@@H](CCCCN)C(N)=O
Lookup: Order the items by recorded MIC Candida albicans; the first position goes to the largest value. Please list the labels according to the requested order.
Found: P, R, Q

A = CCCCCCCCCC(=O)N[C@@H](CCCCN)C(=O)N[C@@H](CCCCN)C(=O)N[C@@H](CCCCN)C(N)=O
B = CCCCCCCCCCCCCC(=O)N[C@@H](CCCCN)C(=O)NCC(=O)N[C@@H](CCCCN)C(N)=O [C14-KGK-NH2] (Myristoyl-Lys-Gly-Lys-NH2)
Lookup: # query: argmin of MIC Candida albicans over A and B Respond using the label that marks the chosen record.
Found: B

1 = CCCCCCCCCCCC(=O)N[C@@H](CCCCN)C(=O)NCC(=O)N[C@@H](CCCCN)C(N)=O [C12-KGK-NH2] (Lauroyl-Lys-Gly-Lys-NH2)
2 = CCCCCCCCCCCCCC(=O)N[C@@H](CCCCN)C(=O)N[C@@H](CCCCN)C(N)=O
3 = CCCCCCCCCC(=O)N[C@@H](CCCCN)C(=O)NCC(N)=O [C10-KG-NH2] (Decanoyl-Lys-Gly-NH2)
Lookup: Hi! Can you put these in order of MIC Candida albicans, lowest number first? API: response body holds the labels in the requested order.
Found: 2, 3, 1

These data points were gathered from paper PMC5285354.
